Task for the reader: assign each of the following compounds its reported IC50.
Biological target: MCR-1 (Homo sapiens, UniProt Q01726)
Construct: expressed in transfected cells; host or cells: HEK 293
Sequence (Q01726 whole entry): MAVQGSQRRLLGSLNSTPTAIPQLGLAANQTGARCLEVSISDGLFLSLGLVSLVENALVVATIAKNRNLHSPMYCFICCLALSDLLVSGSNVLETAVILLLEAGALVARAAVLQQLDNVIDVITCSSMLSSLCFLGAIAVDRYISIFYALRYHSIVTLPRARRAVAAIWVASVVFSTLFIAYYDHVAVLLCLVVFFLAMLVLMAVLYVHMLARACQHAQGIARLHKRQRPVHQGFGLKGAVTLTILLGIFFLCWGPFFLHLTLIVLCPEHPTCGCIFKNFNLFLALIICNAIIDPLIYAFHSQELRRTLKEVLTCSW
Experiment: Melanocortin receptor binding assay, competition with 125I-HP 467, HEK 293 cells expressing hMCR-1
Conditions: TRG 2414 library; inhibition of binding of 125I-HP 467, HEK 293 cells expressing MCR-1; read-out: MC-1 IC50
Express the reported value numerically, then name its unit.

Q) Return reported IC50; argument: CCCOc1ccc(C2C(CNC3CCCCC3)c3ccccc3CN2CCCCC(CN)NCc2ccccc2)cc1 (stereo not shown) [Cmpd 199]
A) 1.29 µM

Q) Return reported IC50; argument: CC(C)Cc1ccc(C(C)CNC(CN)CCCCN2Cc3ccccc3C(CNCc3ccccc3)C2c2ccccc2Br)cc1 (stereo not shown) [Cmpd 232]
A) 32.7 µM

Q) Return reported IC50; argument: NCC(N)CCCCN1Cc2ccccc2C(CNC2CCCCCC2)C1c1ccccc1Br (stereo not shown) [Cmpd 233]
A) 3.32 µM

Q) Return reported IC50; argument: NCC(N)CCCCN1Cc2ccccc2C(CNCCc2cccc(Cl)c2)C1c1ccc(Cl)cc1Cl (stereo not shown) [Cmpd 244]
A) 44.1 µM

Q) Return reported IC50; argument: NCC(N)CCCCN1Cc2ccccc2C(CNCCc2cccc(Cl)c2)C1c1ccccc1Br (stereo not shown) [Cmpd 213]
A) 6.48 µM

Q) Return reported IC50; argument: CCCOc1ccc(C2C(CNCCc3ccc(OC)cc3)c3ccccc3CN2CCCCC(CN)NCc2ccccc2)cc1 (stereo not shown) [Cmpd 187]
A) 1.07 µM

Q) Return reported IC50; argument: CCCOc1ccc(C2C(CNC3CCCCC3)c3ccccc3CN2CCCCC(CN)NCC(C)c2ccc(CC(C)C)cc2)cc1 (stereo not shown) [Cmpd 200]
A) 7.59 µM

Q) Return reported IC50; argument: NCC(N)CCCCN1Cc2ccccc2C(CNC2CCCCC2)C1c1ccccc1Br (stereo not shown) [Cmpd 237]
A) 5.87 µM

Q) Return reported IC50; argument: COc1ccc(CNCC2c3ccccc3CN(CCCCC(CN)NCCc3ccccc3)C2c2ccccc2Br)cc1 (stereo not shown) [Cmpd 222]
A) 5.05 µM

Q) Return reported IC50; argument: CCCOc1ccc(C2C(CNC3CCCCCC3)c3ccccc3CN2CCCCC(CN)NCCc2ccccc2)cc1 (stereo not shown) [Cmpd 194]
A) 3.86 µM

Q) Return reported IC50; argument: CCCOc1ccc(C2C(CNCCc3ccc(OC)cc3)c3ccccc3CN2CCCCC(CN)NCCc2ccccc2)cc1 (stereo not shown) [Cmpd 186]
A) 2.81 µM

Q) Return reported IC50; argument: CCCOc1ccc(C2C(CNC3CCCCC3)c3ccccc3CN2CCCCC(CN)NCCc2ccccc2)cc1 (stereo not shown) [Cmpd 198]
A) 3 µM

Q) Return reported IC50; argument: CCOc1ccccc1CNCC1c2ccccc2CN(CCCCC(CN)NCc2ccccc2)C1c1ccccc1Br (stereo not shown) [Cmpd 207]
A) 7.67 µM

Q) Return reported IC50; argument: NCC(CCCCN1Cc2ccccc2C(CNCc2ccccc2C(F)(F)F)C1c1ccccc1Br)NCCc1ccccc1 (stereo not shown) [Cmpd 202]
A) 21.8 µM

Q) Return reported IC50; argument: COc1ccccc1CCNCC1c2ccccc2CN(CCCCC(CN)NCCc2ccccc2)C1c1ccccc1Br (stereo not shown) [Cmpd 210]
A) 3.7 µM

Q) Return reported IC50; argument: CCCOc1ccc(C2C(CNC3CCCCCC3)c3ccccc3CN2CCCCC(N)CN)cc1 (stereo not shown) [Cmpd 193]
A) 1.64 µM
